system: MCF7; test: Antiproliferative activity against human MCF7 cells after 48 hrs by MTT assay; type: functional, cell-based; conditions: MCF7, 48 h
Reported Property: IC50 (µg/mL)
All answers are understood in µg/mL, so give the number only.

Before answering, review these 8 worked examples.
>>> df
                                 cpd_smiles  tested_target  measured_result
0  O=C(/C=C/c1ccc(C(F)(F)F)cc1)Nc1nnc(-c2ccc(Br)cc2)s1           MCF7             1.58
1  O=C(/C=C/c1ccc(C(F)(F)F)cc1)Nc1nnc(-c2ccccc2)s1           MCF7             1.52
2  COc1ccc(-c2nnc(NC(=O)/C=C/c3ccc(C)cc3)s2)cc1           MCF7             0.31
3  Cc1ccc(/C=C/C(=O)Nc2nnc(-c3ccc(Cl)cc3)s2)cc1           MCF7             1.44
4  COc1ccc(/C=C/C(=O)Nc2nnc(-c3ccccc3)s2)cc1           MCF7             0.83
5  O=C(/C=C/c1ccccc1)Nc1nnc(-c2ccc(Cl)cc2)s1           MCF7             1.42
6  Cc1ccc(-c2nnc(NC(=O)/C=C/c3ccc(C(F)(F)F)cc3)s2)cc1           MCF7              1.1
7  Cc1ccc(-c2nnc(NC(=O)/C=C/c3ccccc3)s2)cc1           MCF7             1.19

Q: Value wanted: IC50 (MCF7) of entry COc1ccc(/C=C/C(=O)Nc2nnc(-c3ccc(OC)cc3)s2)cc1
Result: 0.28

----------
system: A549; test: Antiproliferative activity against human A549 cells after 48 hrs by MTT assay; type: functional, cell-based; conditions: A549, 48 h
Reported Property: IC50 (µg/mL)
All answers are understood in µg/mL, so give the number only.

Before answering, review these 3 worked examples.
                                 cpd_smiles  measured_result
0  COc1ccc(-c2nnc(NC(=O)/C=C/c3ccc(F)cc3)s2)cc1             0.75
1  O=C(/C=C/c1ccccc1)Nc1nnc(-c2ccc(Br)cc2)s1             2.18
2  COc1ccc(/C=C/C(=O)Nc2nnc(-c3ccc(OC)cc3)s2)cc1             0.52

Q: // query IC50 value for entry COc1ccc(/C=C\c2cc(OC)c(OC)c(OC)c2)cc1O
Result: 0.55

Q: // query IC50 value for entry O=C(/C=C/c1ccc(F)cc1)Nc1nnc(-c2ccccc2)s1
Result: 1.82

Q: // query IC50 value for entry COc1cc2c(c(OC)c1OC)-c1ccc(OC)c(=O)cc1[C@@H](NC(C)=O)CC2
Result: 0.75

----------
system: A549; experiment: Antiproliferative activity against human A549 cells after 48 hrs by MTT assay; assay type: functional, cell-based; settings: A549, 48 h
Reported Property: IC50 (µg/mL)
All answers are understood in µg/mL, so give the number only.

Q: // query IC50 value for entry COc1ccc(/C=C/C(=O)Nc2nnc(-c3ccc(Cl)cc3)s2)cc1
Result: 1.38

Q: // query IC50 value for entry COc1ccc(-c2nnc(NC(=O)/C=C/c3ccc(C)cc3)s2)cc1
Result: 0.58

Q: // query IC50 value for entry O=C(/C=C/c1ccc(C(F)(F)F)cc1)Nc1nnc(-c2ccccc2)s1
Result: 1.78

Q: // query IC50 value for entry Cc1ccc(-c2nnc(NC(=O)/C=C/c3ccccc3)s2)cc1
Result: 1.38

Q: // query IC50 value for entry O=C(/C=C/c1ccc(C(F)(F)F)cc1)Nc1nnc(-c2ccc(Br)cc2)s1
Result: 4.68

----------
test system: A549; assay: Antiproliferative activity against human A549 cells after 48 hrs by MTT assay; type: functional, cell-based; conditions: A549, 48 h
IC50: recorded values
All answers are understood in µg/mL, so give the number only.

Before answering, review these 10 worked examples.
>>> df
                                 cpd_smiles  tested_target  measured_result
0  Cc1ccc(/C=C/C(=O)Nc2nnc(-c3ccc(Cl)cc3)s2)cc1           A549             1.25
1  COc1ccc(/C=C/C(=O)Nc2nnc(-c3ccc(C)cc3)s2)cc1           A549             0.66
2     O=C(/C=C/c1ccccc1)Nc1nnc(-c2ccccc2)s1           A549             1.75
3  COc1ccc(-c2nnc(NC(=O)/C=C/c3ccccc3)s2)cc1           A549             0.68
4  Cc1ccc(-c2nnc(NC(=O)/C=C/c3ccc(C(F)(F)F)cc3)s2)cc1           A549             1.61
5  Cc1ccc(-c2nnc(NC(=O)/C=C/c3ccc(F)cc3)s2)cc1           A549             1.23
6  Cc1ccc(/C=C/C(=O)Nc2nnc(-c3ccc(Br)cc3)s2)cc1           A549             1.51
7  O=C(/C=C/c1ccc(F)cc1)Nc1nnc(-c2ccc(Br)cc2)s1           A549             2.83
8  Cc1ccc(/C=C/C(=O)Nc2nnc(-c3ccccc3)s2)cc1           A549             1.58
9  O=C(/C=C/c1ccc(C(F)(F)F)cc1)Nc1nnc(-c2ccc(Cl)cc2)s1           A549             3.09

Q: // query IC50 value for entry COc1ccc(/C=C/C(=O)Nc2nnc(-c3ccc(Br)cc3)s2)cc1
Result: 1.04

Q: // query IC50 value for entry Cc1ccc(/C=C/C(=O)Nc2nnc(-c3ccc(C)cc3)s2)cc1
Result: 1.08

----------
test system: MCF7; assay: Antiproliferative activity against human MCF7 cells after 48 hrs by MTT assay; format: functional, cell-based; conditions: MCF7, 48 h
# strict inequality: IC50 < 1 µg/mL yields true (1), everything else yields false (0)

Worked set:
>>> print(df.to_string())
                                 cpd_smiles  group_label
0  COc1cc2c(c(OC)c1OC)-c1ccc(OC)c(=O)cc1[C@@H](NC(C)=O)CC2     true (1)
1  COc1ccc(-c2nnc(NC(=O)/C=C/c3ccc(C(F)(F)F)cc3)s2)cc1     true (1)
2  COc1ccc(-c2nnc(NC(=O)/C=C/c3ccccc3)s2)cc1     true (1)
3  O=C(/C=C/c1ccc(F)cc1)Nc1nnc(-c2ccccc2)s1    false (0)
4  O=C(/C=C/c1ccccc1)Nc1nnc(-c2ccc(Br)cc2)s1    false (0)
5    COc1ccc(/C=C\c2cc(OC)c(OC)c(OC)c2)cc1O     true (1)

Here is the next item to consider.
Q: Lab note: IC50 threshold 1 µg/mL. Does this compound come in strictly under it? Cc1ccc(/C=C/C(=O)Nc2nnc(-c3ccccc3)s2)cc1
Result: false (0)

----------
tested on: MCF7; assay: Antiproliferative activity against human MCF7 cells after 48 hrs by MTT assay; type: functional, cell-based; conditions: MCF7, 48 h
# strict inequality: IC50 < 1 µg/mL yields True, everything else yields False

Worked set:
                                 cpd_smiles  group_label
0  Cc1ccc(/C=C/C(=O)Nc2nnc(-c3ccc(C)cc3)s2)cc1         True
1  COc1ccc(/C=C/C(=O)Nc2nnc(-c3ccc(Cl)cc3)s2)cc1         True
2  COc1ccc(/C=C/C(=O)Nc2nnc(-c3ccc(Br)cc3)s2)cc1        False
3  COc1ccc(-c2nnc(NC(=O)/C=C/c3ccc(F)cc3)s2)cc1         True
4  Cc1ccc(/C=C/C(=O)Nc2nnc(-c3ccc(Br)cc3)s2)cc1        False

Q: Lab note: IC50 threshold 1 µg/mL. Does this compound come in strictly under it? O=C(/C=C/c1ccccc1)Nc1nnc(-c2ccccc2)s1
Result: False

Q: Lab note: IC50 threshold 1 µg/mL. Does this compound come in strictly under it? O=C(/C=C/c1ccc(C(F)(F)F)cc1)Nc1nnc(-c2ccc(Cl)cc2)s1
Result: False

Q: Lab note: IC50 threshold 1 µg/mL. Does this compound come in strictly under it? COc1ccc(/C=C/C(=O)Nc2nnc(-c3ccc(C)cc3)s2)cc1
Result: True

----------
system: A549; test: Antiproliferative activity against human A549 cells after 48 hrs by MTT assay; format: functional, cell-based; conditions: A549, 48 h
IC50: recorded values
All answers are understood in µg/mL, so give the number only.

                                 cpd_smiles  display_unit  measured_result
0  O=C(/C=C/c1ccccc1)Nc1nnc(-c2ccc(Cl)cc2)s1         µg/mL             2.02
1  COc1ccc(-c2nnc(NC(=O)/C=C/c3ccc(C(F)(F)F)cc3)s2)cc1         µg/mL             0.69
2  O=C(/C=C/c1ccc(F)cc1)Nc1nnc(-c2ccc(Cl)cc2)s1         µg/mL             2.06

// next item, IC50 requested
Q: Value wanted: IC50 (A549) of entry COc1ccc(/C=C/C(=O)Nc2nnc(-c3ccccc3)s2)cc1
Result: 0.76

Recorded values, source ChEMBL document CHEMBL1932925.
